// provenance: patent USRE47150

Assign variant/HC_K99L to each entry below.
Target: T1, mouse tissue factor pathway inhibitor (TFPI) (mouse, UniProt O54819 29-289, limits assumed)
T1 construct: bought; also called mTFPI; murine TFPI
T1 sequence (looked up): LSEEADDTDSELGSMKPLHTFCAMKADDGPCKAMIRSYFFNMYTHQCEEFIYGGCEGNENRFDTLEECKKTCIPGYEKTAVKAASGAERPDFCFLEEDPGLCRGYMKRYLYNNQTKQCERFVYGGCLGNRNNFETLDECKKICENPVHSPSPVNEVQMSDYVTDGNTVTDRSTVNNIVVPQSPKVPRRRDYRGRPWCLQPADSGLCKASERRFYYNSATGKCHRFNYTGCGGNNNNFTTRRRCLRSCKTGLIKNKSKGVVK
Test: competitive ELISA
Expressed in ratio, but write only the number.

### Prompt What value of measured variant/HC_K99L is listed for 2A8 HC G33P+S35D+S54F+K99L/LC Y48F+N52G (Fab, V domains shown) VH: QVQLVESGGGLVQPGGSLRLSCAASGFTFRSYPMDWVRQAPGKGLEWVSSIRGFSSSTYYADSVKGRFTISRDNSKNTLYLQMNSLRAEDTAVYYCARLYRYWFDYWGQGTLVTVSS VL: DIELTQPPSVSVAPGQTARISCSGDNLRNYYAHWYQQKPGQAPVVVIFYDNGRPSGIPERFSGSNSGNTATLTISGTQAEDEADYYCQSWDDGVPVFGGGTKLTVLG ?
### Response 2.3

### Prompt What value of measured variant/HC_K99L is listed for 2A8 HC S31V+G33P+S35D/LC Y48F+D91L+V96W (Fab, V domains shown) VH: QVQLVESGGGLVQPGGSLRLSCAASGFTFRVYPMDWVRQAPGKGLEWVSSIRGSSSSTYYADSVKGRFTISRDNSKNTLYLQMNSLRAEDTAVYYCARKYRYWFDYWGQGTLVTVSS VL: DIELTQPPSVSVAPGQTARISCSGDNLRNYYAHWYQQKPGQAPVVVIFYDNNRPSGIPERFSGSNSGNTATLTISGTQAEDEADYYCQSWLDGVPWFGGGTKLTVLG ?
### Response 5.9

### Prompt What value of measured variant/HC_K99L is listed for 2A8 HC S35D+R52S+S55R+K99L/LC Y48F+N51V+D91W (Fab, V domains shown) VH: QVQLVESGGGLVQPGGSLRLSCAASGFTFRSYGMDWVRQAPGKGLEWVSSISGSRSSTYYADSVKGRFTISRDNSKNTLYLQMNSLRAEDTAVYYCARLYRYWFDYWGQGTLVTVSS VL: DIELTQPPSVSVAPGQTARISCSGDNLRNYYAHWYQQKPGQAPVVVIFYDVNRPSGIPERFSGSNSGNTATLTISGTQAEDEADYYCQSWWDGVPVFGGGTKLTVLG ?
### Response 7.9
